Catalogue of compounds with associated pEC50
- Target or test system: TLR7 (Homo sapiens, UniProt Q9NYK1)
- Construct: lymphocytes, monocytes and dendritic cells that express TLR7, TLR8 and TLR9; endogenous in cells; host or cells: cryopreserved human PBMCs from healthy donors
- Sequence (Q9NYK1 27-1049): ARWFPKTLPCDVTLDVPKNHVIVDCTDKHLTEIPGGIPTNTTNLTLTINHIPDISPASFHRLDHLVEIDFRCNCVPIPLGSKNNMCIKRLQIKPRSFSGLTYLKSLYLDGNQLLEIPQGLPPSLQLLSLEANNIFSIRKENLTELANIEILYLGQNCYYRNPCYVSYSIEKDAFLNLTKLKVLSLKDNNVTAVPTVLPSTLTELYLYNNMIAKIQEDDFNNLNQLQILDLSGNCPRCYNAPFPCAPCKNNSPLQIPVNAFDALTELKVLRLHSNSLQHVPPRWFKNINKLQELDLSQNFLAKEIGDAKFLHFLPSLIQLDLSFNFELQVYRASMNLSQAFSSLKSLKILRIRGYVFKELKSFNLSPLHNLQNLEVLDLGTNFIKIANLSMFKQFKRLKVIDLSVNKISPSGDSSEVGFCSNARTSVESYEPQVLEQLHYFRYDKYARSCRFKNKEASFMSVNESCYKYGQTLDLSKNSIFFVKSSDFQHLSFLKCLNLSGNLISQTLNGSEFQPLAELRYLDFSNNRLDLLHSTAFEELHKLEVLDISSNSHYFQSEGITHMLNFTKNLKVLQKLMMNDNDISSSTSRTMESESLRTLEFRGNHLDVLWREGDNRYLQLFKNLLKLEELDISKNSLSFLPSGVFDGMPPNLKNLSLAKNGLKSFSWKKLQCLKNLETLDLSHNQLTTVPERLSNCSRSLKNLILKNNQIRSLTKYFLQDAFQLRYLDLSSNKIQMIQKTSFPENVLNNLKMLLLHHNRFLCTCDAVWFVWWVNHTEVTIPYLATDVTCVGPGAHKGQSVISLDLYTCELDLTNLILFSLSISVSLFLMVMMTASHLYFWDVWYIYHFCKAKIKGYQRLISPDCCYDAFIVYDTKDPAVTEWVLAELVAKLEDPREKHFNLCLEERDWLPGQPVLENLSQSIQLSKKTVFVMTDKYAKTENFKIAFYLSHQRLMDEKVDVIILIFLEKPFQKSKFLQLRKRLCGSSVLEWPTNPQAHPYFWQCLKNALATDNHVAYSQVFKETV
- Protocol details: Human PBMC cell-based assay, TLR7 agonist stimulation
- Measurement conditions: human PBMCs; TLR7 agonist GS-986 400 nM; 6 hours; cytokines (IL-6 and IFNα) in supernatant; Table 2; read-out: TLR-7 EC50
pEC50: −log10 of the molar value.
Reported metric: pEC50

1. Cc1cc(-c2ccc3c(C)c(-c4ccc(C(=O)N[C@H]5CCNC5)cc4)[nH]c3c2)cc(C)n1 6.54
2. Cc1cc(-c2ccc3c(C)c(-c4cccc(C(=O)N[C@H]5CCNC5)c4)[nH]c3c2)cc(C)n1 6.47
3. Cc1c(-c2ccc(N3CCNCC3)nc2)[nH]c2cc(-c3ccc(C#N)c4ncccc34)ccc12 9.30
4. Cc1cc(-c2cnc3c(C)c(-c4ccc(N5CCNCC5)cc4)[nH]c3c2)cc(C)n1 7.55
5. Cc1cc(-c2ccc3c(C)c(-c4ccc(N5CCNCC5)nc4)[nH]c3c2)cc(C)n1 8.17
6. Cc1cc(-c2ccc3c(C)c(-c4ccc(C(=O)N[C@@H]5CCNC5)cc4)[nH]c3c2)cc(C)n1 6.48
